The following binders are listed with their measured EC50 values.
Target: T1, (GA)15: H-CHHHHHH(GA)15-OH
T1 construct: synthetic, not coupled to BSA; also called poly-GA DPR protein peptide
T1 peptide: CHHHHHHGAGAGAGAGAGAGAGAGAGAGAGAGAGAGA
Assay: indirect ELISA, coated uncoupled peptide
Number only, in nM; omit the unit.

{"columns": ["binder", "unit.abbrev", "EC50"],
 "data": [
  ["NI-308.15O7 (antibody, V domains shown) VH: QVQLVESGGGVVQPGRSLRLSCAASGFTFSNHAMHWVRQAPGKGLEWVAVISYDGENTYYADSIEGRFTISRDNFKNTLFLQMYSLTADDTAMYFCARGGRRGHFTSYYLDYWGQGTLVTVSS VL: CDIQMTQSPSSLSASVGDRVTITCRASQNIDKYLNWYQQIPGKAPKLLIYAASSLHSGVPSRFSGSGSGTDFSLTISSLQPEDFAIYYCQQSYSSFRTFGQGTKLEIK", "nM", 0.48]
]}

Now for another entry.
For reference, reported EC50 for NI-308.18F7 (antibody, V domains shown, Recombinant complete human IgG1, kappa) VH: QVQLQESGPGLVKPSETLSVTCTVSGGSINDYYWNWIRQPAGKGLEWIGRIYASGTINYNPSLQSRVTMSIDTSKNQFSLDLISVSAADTAVYYCARWGQVVGDYYYGMDVWGQGTTVTVSS VL: EIVLTQSPLSLSVTPGEPASISCKSSQSLQHTNGYNYLDWYLLKPGQSPQLLIFLTSNRASGVPDRFSGSGSGTNFTLKISRVEAEDVGVYYCMEGIQLWTFGQGTKLEIK stands at 1.5
